Source: PubChem BioAssay

Experiment: reversal of MRP1-mediated doxorubicin resistance, pilot screen, H69AR cells, doxorubicin co-treatment (AID 601)
Conditions: H69AR cells + 2 uM doxorubicin, CellTiter-Glo, 72 h; measured here: viability with 2 uM doxorubicin; at 10 µM; stronger effect = lower value
Mark rule met only for viability values smaller than 90%; exact matches and larger values are rule not met.

Example entries and their recorded answers appear below.
* CCOC(=O)C(NC(=O)c1ccc(OC)cc1)(N1CCOCC1)C(F)(F)F (centres undefined) | rule not met
* N#CC1=C(N)Oc2n[nH]c(-c3cccs3)c2C1c1cccs1 (centres undefined) | rule met

Q: Hello, is viability of the following molecule strictly smaller than 90%? CC(NC(=O)Nc1nccs1)(C(F)(F)F)C(F)(F)F
Ans: rule not met

Q: # TODO verify viability < 90% strictly for this molecule: CCn1nnc(-c2ccccc2NC(=O)c2ccc(-n3cnnn3)cc2)n1
Ans: rule met

Q: State whether 90% exceeds viability recorded for CCN(CC)c1ccc(CNc2ccc(Br)cn2)cc1 .
Ans: rule not met

Q: In plain terms, does CCOC(=O)C(CC)Sc1nc2c(c(=O)[nH]c(=O)n2C)n1C/C=C(/C)Cl (centres undefined) come in under 90% for viability?
Ans: rule met

Q: Find out if reported viability for c1cc(CNc2ccc3c(c2)OCO3)ccn1 is less than 90%
Ans: rule not met

Q: Say whether its viability is strictly beneath 90%. Entry: CC(=O)N(C(C)=O)c1cccc2c(N(C(C)=O)C(C)=O)cccc12
Ans: rule not met

---

Test: reversal of MRP1-mediated doxorubicin resistance, pilot screen, H69AR cells, doxorubicin co-treatment (AID 601)
Conditions: H69AR cells, CellTiter-Glo, 72 h; compound alone cytotoxicity; at 10 µM
Binarize viability at 90%; below is label 1, at or above is label 0.

* CN(CC(=O)Nc1ccc2c(c1)OCCO2)S(=O)(=O)c1ccc(Br)s1 | label 1

Q: A record lists COc1ccc2[nH]c(=O)c(CN(Cc3cccs3)S(=O)(=O)c3cccc4nsnc34)cc2c1 . Is its viability below 90%?
Ans: label 1

Q: Hello, I'm reviewing records and need to know if viability of Cc1cc(NC(=O)COC(=O)C2COc3ccccc3O2)no1 (stereo unspecified) is below 90%. Could you check?
Ans: label 0

Q: Field: below-cutoff. Rule: recorded viability strictly less than 90%. Subject: CCCOc1cc(C)c(S(=O)(=O)N2CCN(C)CC2)cc1C
Ans: label 0

Q: State whether 90% exceeds viability recorded for CNC(=O)CN(c1cc(C)ccc1OC)S(=O)(=O)c1ccc(C)cc1 .
Ans: label 0

---

Some compounds, each annotated with its measured inhibition.
Experiment: growth suppression of yeast trafficking mutant, preliminary HTS, modulators of trafficking downstream of Golgi apparatus project, 1536-format plate, OD 615 nm (AID 637)
Conditions: yeast transport mutant growth, absorbance 615 nm, 18 h; stronger effect = higher value
Give the quantity in %, number only.

Solved cases below.
- O=C(NC1CCS(=O)(=O)C1)c1c(NC(=O)C2COc3ccccc3O2)sc2c1CCCC2 (stereo not drawn): -1.61
- COC(=O)c1ccccc1NC(=O)CSc1nc2c(c(=O)n(C)c(=O)n2C)n1C: 26.5
- CCCCNS(=O)(=O)c1ccc(OC)c2ncccc12: -3.33
- CCc1nnc(NC(=O)c2ccc(S(=O)(=O)NCC(C)C)cc2)s1: 0.16
- c1c2c(cc3sc(N4CCCCC4)nc13)OCCO2: 7.26

// next item, inhibition requested
Q: Return reported inhibition; argument: CCC1SC2=NC(C)=C(C(=O)OC)C(c3ccc(C)cc3)N2C1=O (stereo not drawn)
Ans: -1.59

---

Assay: reversal of MRP1-mediated doxorubicin resistance, pilot screen, H69AR cells, doxorubicin co-treatment (AID 601)
Settings: H69AR cells + 2 uM doxorubicin, CellTiter-Glo, 72 h; measured here: viability with 2 uM doxorubicin; at 10 µM; stronger effect = lower value
Please assign n whenever viability is at or above 90%, and y whenever it is below.

Solved entries (count: 6):
- Cc1ccc(Nc2cc(-n3nc(C)cc3C)ncn2)cc1: y
- COc1ccc(C)cc1NC(=O)c1nc2nc(C)cc(C)n2n1: y
- O=C(OC1CCOC1=O)c1ccc2ccccc2n1 (stereo unspecified): n
- COc1ccc(-c2[nH]nc3c2C(c2ccccc2OC(=O)N2CCOCC2)C(C#N)=C(N)O3)cc1 (stereo unspecified): y
- C1CCc2nnc(-c3nnc4n3CCCCC4)n2CC1: y
- Cn1cnc2c(N3CCCCC3)nccc21: n

Turning now to a further molecule:
Q: I'd appreciate it if you could check whether CCOC(=O)N1CCN(S(=O)(=O)c2ccc(Br)s2)CC1 has viability smaller than 90%.
Ans: y

---

Assay: reversal of MRP1-mediated doxorubicin resistance, pilot screen, H69AR cells, doxorubicin co-treatment (AID 601)
Details: H69AR cells + 2 uM doxorubicin, CellTiter-Glo, 72 h; at 10 µM; stronger effect = higher value
Parameter: differential viability (reversal) (%)
Number in %, nothing else.

Q: So what's the measured differential viability (reversal) for this one? COc1ccc(C(=O)N2CCN(S(=O)(=O)c3cc(Cl)ccc3OC)CC2)cc1
Ans: 1.29

---

Experiment: reversal of MRP1-mediated doxorubicin resistance, pilot screen, H69AR cells, doxorubicin co-treatment (AID 601)
Conditions: H69AR cells + 2 uM doxorubicin, CellTiter-Glo, 72 h; at 10 µM; stronger effect = higher value
Each entry below carries its recorded differential viability (reversal).
Report only the number, with the unit % understood.

Some solved cases for reference:
• CCn1nc(C)c(NC(=O)c2cc(Br)ccc2Cl)c1C = 14.3
• COc1ccc2[nH]c(=O)c(CN(C(=O)c3cccnc3)c3ccccc3OC)cc2c1 = -2.19

Q: GET /values?readout=differential viability (reversal)&item= CC(=Nc1ccc(C)c(C)c1)C1=C(O)CCC1=O
Ans: 12

Q: Can you share its differential viability (reversal)? I mean this compound: CCOC(=O)c1sc(C)c2c(=O)n(CC)nnc12
Ans: 1.48

Q: Query: differential viability (reversal); subject: CCn1c(SCC(N)=O)nc2c1c(=O)n(C)c(=O)n2C
Ans: 4.83

Q: Look up differential viability (reversal): Cc1cc(C)c(C#N)c(SCc2[nH]nc3c2C(c2ccccc2)C(C#N)=C(N)O3)n1 (stereo unspecified)
Ans: 4.6

Q: Reported differential viability (reversal) for CCCCOc1ccc(-c2nnn(CC(=O)Nc3ncc(CC(=O)OCC)s3)n2)cc1 : what is it?
Ans: -4.45

Q: // returns reported differential viability (reversal) for input Cc1ccc2cc(C#N)c(NCCCNC(=O)C3CCCO3)nc2c1 (stereo unspecified)
Ans: 12.6

Q: Would you kindly share the measured differential viability (reversal) for COc1ccc(CCn2c(=N)c(C#N)cc3c(=O)n4ccccc4nc32)cc1 ?
Ans: 2.31

Q: # lookup: differential viability (reversal) of CC(C)[C@H](NC(=O)NC1CCCC1)C(=O)O
Ans: 15.2

Q: Which differential viability (reversal) value belongs to COc1cccc(C(=O)Nc2ncc3c(n2)CC(C)CC3=O)c1 (stereo unspecified) ?
Ans: 9.34

---

Target: Receptor tyrosine-protein kinase erbB-2 (Homo sapiens) (UniProt P04626)
Sequence (P04626 whole entry, looked up): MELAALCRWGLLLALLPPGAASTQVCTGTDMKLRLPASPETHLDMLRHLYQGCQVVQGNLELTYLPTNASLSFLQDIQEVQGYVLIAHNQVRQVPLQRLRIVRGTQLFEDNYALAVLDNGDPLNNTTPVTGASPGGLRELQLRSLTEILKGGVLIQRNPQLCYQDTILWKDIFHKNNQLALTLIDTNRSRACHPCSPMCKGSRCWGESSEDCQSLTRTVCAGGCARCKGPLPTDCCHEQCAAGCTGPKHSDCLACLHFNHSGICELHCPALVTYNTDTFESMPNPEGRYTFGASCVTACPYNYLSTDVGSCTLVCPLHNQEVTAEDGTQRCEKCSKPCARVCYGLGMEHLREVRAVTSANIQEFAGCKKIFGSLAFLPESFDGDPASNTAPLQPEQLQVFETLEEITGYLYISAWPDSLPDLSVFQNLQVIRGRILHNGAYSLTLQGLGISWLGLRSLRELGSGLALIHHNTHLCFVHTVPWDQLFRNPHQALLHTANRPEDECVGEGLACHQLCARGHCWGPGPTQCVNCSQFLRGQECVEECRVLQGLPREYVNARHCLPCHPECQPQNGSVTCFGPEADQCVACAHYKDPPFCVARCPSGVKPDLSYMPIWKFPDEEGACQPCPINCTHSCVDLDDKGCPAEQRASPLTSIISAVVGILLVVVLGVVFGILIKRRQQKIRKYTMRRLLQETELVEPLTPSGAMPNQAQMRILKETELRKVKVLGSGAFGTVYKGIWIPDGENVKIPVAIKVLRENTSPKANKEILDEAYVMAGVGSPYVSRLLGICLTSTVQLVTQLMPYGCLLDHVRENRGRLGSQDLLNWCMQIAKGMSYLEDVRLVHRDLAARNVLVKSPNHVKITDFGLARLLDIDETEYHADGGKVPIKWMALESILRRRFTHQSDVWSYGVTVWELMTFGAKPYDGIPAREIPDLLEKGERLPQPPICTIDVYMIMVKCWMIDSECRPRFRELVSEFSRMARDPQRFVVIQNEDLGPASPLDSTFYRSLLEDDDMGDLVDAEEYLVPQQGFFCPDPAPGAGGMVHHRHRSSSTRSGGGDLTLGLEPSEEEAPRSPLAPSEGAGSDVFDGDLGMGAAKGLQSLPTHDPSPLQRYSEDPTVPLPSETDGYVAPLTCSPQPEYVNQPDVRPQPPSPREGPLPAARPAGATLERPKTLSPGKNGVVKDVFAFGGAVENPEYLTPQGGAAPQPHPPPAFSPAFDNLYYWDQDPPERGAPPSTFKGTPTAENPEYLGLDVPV
Assay: reducers of endogenous Her2 protein level, primary screen, SKBR3 breast tumor cells, AlphaScreen, ATP viability (AID 461);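 on Her2 level: lower value means less Her2 protein in the cells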;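 on viability: percent of carrier control wells set as 100% viability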
Conditions: 18-24 h, at 10 µM, stronger effect = lower value
Parameter: Her2 level (%)
Number in %, nothing else.

Use the examples below as a reference point.
• O=C(Nc1ccc2c(c1)OCO2)c1cc2ncc(Br)cn2n1 = 104
• CC1CCCCC1NC(=O)Cn1nnc(-c2ccc(Cl)cc2)n1 (centres undefined) = 92.5
• CCCC(=O)OCCn1c(Br)nc2c1c(=O)[nH]c(=O)n2C = 86.5
• CCOc1cc(-c2nc3ccccn3c2NCC2CCCO2)ccc1O (centres undefined) = 111
• Cc1cc(SCC(N)=O)nc(SCC(=O)c2ccccc2)n1 = 89

Shift focus to the following entry.
Q: Provide the documented Her2 level with Receptor tyrosine-protein kinase erbB-2 (Homo sapiens) (UniProt P04626) as the system for CCOC(=O)CN1CC23C=CC(O2)C(C(=O)NC2CCCC2)C3C1=O (centres undefined)
Ans: 84

---

compounds and their reported viability
Assay: reducers of endogenous Her2 protein level, primary screen, SKBR3 breast tumor cells, AlphaScreen, ATP viability (AID 461);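 on viability: percent of carrier control wells set as 100% viability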
Details: 18-24 h, measured here: SKBR3 viability, ATP luminescence, at 10 µM
// units = %; emit number, no label

Consider the reported viability for these compounds:
* Cn1c(CCCNC(=O)c2ccccc2)nc2ccccc21 | 112
* CCOC(=O)CSC1=C(C#N)C(=O)NC2(CCCCC2)S1 | 108
* Cc1c(Cl)cnc(NC(=O)COC(=O)C(NC(=O)c2ccco2)C(C)C)c1Cl (stereo unspecified) | 86

Q: Recorded viability of COc1ccc(C(=O)N2CCN(C3CCC(c4ccccc4)CC3)CC2)cc1OC (stereo unspecified) , please.
Ans: 108

Q: Would you mind telling me what viability value was observed for O=C(CCC(=O)N1CCc2ccccc2C1)N1CCN(S(=O)(=O)c2ccccc2)CC1 ?
Ans: 82

Q: Would you kindly share the measured viability for c1ccc(CCn2nnnc2CN2CCN(C3CCCC3)CC2)cc1 ?
Ans: 97.5

Q: Requested read-out: viability. Entry: COCCCNC(=O)CCc1nc(-c2ccccc2Cl)no1
Ans: 102

Q: So what's the measured viability for this one? CC(C(=O)N1CCOCC1)N1c2cccc3cccc(c23)S1(=O)=O (stereo unspecified)
Ans: 101

Q: Please give the measured viability for this compound: CCOC(=O)c1[nH]cc(-c2ccccc2)c1N1CCOCC1
Ans: 92.5

Q: Consider the compound shown here: Cc1cc(SCC(N)=O)nc(SCC(=O)c2ccccc2)n1 What is its recorded viability?
Ans: 92.5

Q: Which viability is reported for this compound? O=C1CC(N2CCN(C3CCc4ccccc4C3)CC2)C(=O)N1c1ccccc1 (stereo unspecified)
Ans: 89.5

Q: Which measured viability value corresponds to COC(=O)c1ccc(-c2ccc(CNCC(O)c3ccccc3)o2)cc1 (stereo unspecified) ?
Ans: 111

Q: Would you kindly share the measured viability for O=C(Nc1ccccc1N1CCN(C(=O)c2ccc(Cl)cc2)CC1)c1cc2ccccc2o1 ?
Ans: 69.5
